Cited source for all entries: patent US9040563B2

Listed here are compounds together with their documented pIC50.
Biological target: GGTase-I (Homo sapiens, UniProt P49354+P53609)
Test: In vitro GGTase-I inhibition: incorporation of [3H]GGPP into recombinant H-Ras-CVLL
Conditions: average of n = 3 unless stated, errors are standard deviations, read-out: GGTase-1 IC50
pIC50: −log10 of the molar value.

Fill in reported pIC50 for this entry: Cn1cncc1CN(CCN(Cc1ccccc1)S(=O)(=O)c1cccc2cccnc12)c1ccc(C#N)cc1
≤ 5.00

Fill in reported pIC50 for this entry: CN(C)c1cccc2c(S(=O)(=O)N(CCN(Cc3cncn3C)c3ccc(C#N)cc3)Cc3ccccc3)cccc12
≤ 5.00

Fill in reported pIC50 for this entry: Cn1cncc1CN(CCN(Cc1ccccc1)S(=O)(=O)c1cccs1)c1ccc(C#N)cc1
≤ 5.00

Continuing:
Fill in reported pIC50 for this entry: Cc1nn(C)c(C)c1CN(CCN(Cc1cncn1C)c1ccc(C#N)cc1)S(=O)(=O)c1cn(C)cn1
< 5.00
